The values you see were collected from PubChem BioAssay AID2685.

experiment: qHTS Assay for Lipid Storage Modulators in Drosophila S3 Cells; conditions: BODIPY lipid droplet fluorescence, 18-24 h, cells fed with added oleic acid; series mostly up to 46.1 µM
Among all 320,000 compounds or so, about 2,100 (0.66%) were called active. Inconclusive results (about 53%) are left out. This is one part of a sample in which actives are shown more often than they occur.
property-name: outcome

> print(dat)
                           structure.smiles    result
1  O=C(COc1ccccc1[N+](=O)[O-])N/N=C/C=C/c1ccco1  inactive
2  COc1ccc(/C=C/c2nc(-c3ccccc3)cc(=O)[nH]2)cc1  inactive
3          CCOc1ccc(CNc2ccc(N3CCCC3)cc2)cc1  inactive
